- tested_system: recombinant human IL-6 (human, UniProt P05231 30-212)
- Sequence (P05231 30-212 limits assumed): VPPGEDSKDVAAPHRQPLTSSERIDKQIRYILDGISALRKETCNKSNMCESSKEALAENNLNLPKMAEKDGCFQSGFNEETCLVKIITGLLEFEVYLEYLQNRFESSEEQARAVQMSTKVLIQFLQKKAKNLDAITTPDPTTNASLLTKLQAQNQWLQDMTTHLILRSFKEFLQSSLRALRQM
- test_description: SPR, IL-6 on CM5 chip, Fab lysate, 25 C
Kindly supply the reported koff values for the records listed here.
Form entry: enter the amount, then its unit.

Prompt: Give koff for anti-IL-6 Fab, heavy chain T28E (Fab, V domains shown, see m39) VH: EVQLVESGGGLVQPGGSLRLSCAASGFEFSPFAMSWVRQAPGKGLEWVAKISPGGSWTYYSDTVTGRFTFSLDTSKSTAYLQMNSLRAEDTAVYYCARQLWGYYALDIWGQGTLVTVSS VL: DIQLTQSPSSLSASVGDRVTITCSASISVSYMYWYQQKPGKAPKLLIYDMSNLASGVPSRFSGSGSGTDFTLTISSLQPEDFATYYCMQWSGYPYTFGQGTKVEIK
Completion: 0.00428 s⁻¹

Prompt: Give koff for anti-IL-6 Fab, heavy chain I108E (Fab, V domains shown) VH: EVQLVESGGGLVQPGGSLRLSCAASGFTFSPFAMSWVRQAPGKGLEWVAKISPGGSWTYYSDTVTGRFTFSLDTSKSTAYLQMNSLRAEDTAVYYCARQLWGYYALDEWGQGTLVTVSS VL: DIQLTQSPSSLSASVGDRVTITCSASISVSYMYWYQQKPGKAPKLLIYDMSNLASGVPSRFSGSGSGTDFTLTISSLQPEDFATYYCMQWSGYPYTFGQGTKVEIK
Completion: 0.00308 s⁻¹

Prompt: Give koff for anti-IL-6 Fab, heavy chain Y104V (Fab, V domains shown) VH: EVQLVESGGGLVQPGGSLRLSCAASGFTFSPFAMSWVRQAPGKGLEWVAKISPGGSWTYYSDTVTGRFTFSLDTSKSTAYLQMNSLRAEDTAVYYCARQLWGYVALDIWGQGTLVTVSS VL: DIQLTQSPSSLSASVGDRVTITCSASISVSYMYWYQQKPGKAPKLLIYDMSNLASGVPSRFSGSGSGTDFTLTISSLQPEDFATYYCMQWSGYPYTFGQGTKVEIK
Completion: 0.00381 s⁻¹

Prompt: Give koff for anti-IL-6 Fab, heavy chain S35Q (Fab, V domains shown, see m39) VH: EVQLVESGGGLVQPGGSLRLSCAASGFTFSPFAMQWVRQAPGKGLEWVAKISPGGSWTYYSDTVTGRFTFSLDTSKSTAYLQMNSLRAEDTAVYYCARQLWGYYALDIWGQGTLVTVSS VL: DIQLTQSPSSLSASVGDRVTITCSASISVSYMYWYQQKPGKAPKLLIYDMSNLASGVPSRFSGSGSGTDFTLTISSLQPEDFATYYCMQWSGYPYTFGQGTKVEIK
Completion: 0.00354 s⁻¹

Prompt: Give koff for anti-IL-6 Fab, heavy chain R98G (Fab, V domains shown, see m39) VH: EVQLVESGGGLVQPGGSLRLSCAASGFTFSPFAMSWVRQAPGKGLEWVAKISPGGSWTYYSDTVTGRFTFSLDTSKSTAYLQMNSLRAEDTAVYYCAGQLWGYYALDIWGQGTLVTVSS VL: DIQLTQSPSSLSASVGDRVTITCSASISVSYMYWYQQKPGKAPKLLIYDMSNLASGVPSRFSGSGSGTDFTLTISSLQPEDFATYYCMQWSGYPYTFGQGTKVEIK
Completion: 0.0048 s⁻¹
